# Procedure summary: Metabolic stability in human liver microsomes assessed as time course of compound elimination at 1 uM by HPLC
# Format: ADME, Microsome
# Setup conditions: read-out: Ke (converted)
Recorded k el at 1 µM by entry

Cpd smiles: COc1ccc2c3c1O[C@H]1c4c(c5cc(Br)cc6c5n4CCC6)C[C@@]4(O)[C@@H](C2)N(CC2CC2)CC[C@]314
k el at 1 µM: 0.0044 s⁻¹
//
Cpd smiles: Oc1ccc2c3c1O[C@H]1c4c(c5cccc6c5n4CCO6)C[C@@]4(O)[C@@H](C2)N(CC2CC2)CC[C@]314
k el at 1 µM: 0.000557 s⁻¹
//
Cpd smiles: COc1ccc2c3c(n4c2c1CCC4)[C@@H]1Oc2c(O)ccc4c2[C@@]12CCN(CC1CC1)[C@H](C4)[C@]2(O)C3
k el at 1 µM: 0.000437 s⁻¹
//
Cpd smiles: COc1ccc2c3c1O[C@H]1c4c(c5cccc6c5n4CCO6)C[C@@]4(O)[C@@H](C2)N(CC2CC2)CC[C@]314
k el at 1 µM: 0.00105 s⁻¹
//
Cpd smiles: COc1ccc2c3c1O[C@H]1c4c(c5cc(F)cc6c5n4CCC6)C[C@@]4(O)C(C2)N(CC2CC2)CC[C@]314
k el at 1 µM: 0.00647 s⁻¹
//
Cpd smiles: Oc1ccc2c3c1O[C@H]1c4c(c5cc(C(F)(F)F)cc6c5n4CCC6)C[C@@]4(O)[C@@H](C2)N(CC2CC2)CC[C@]314
k el at 1 µM: 0.00027 s⁻¹
//
Cpd smiles: Oc1ccc2c3c1O[C@H]1c4c(c5cccc6c5n4CCC6)C[C@@]4(O)[C@@H](C2)N(CC2CC2)CC[C@]314
k el at 1 µM: 0.000415 s⁻¹
//
Cpd smiles: Oc1ccc2c3c1O[C@H]1c4c(c5ccc(Br)c6c5n4CCC6)C[C@@]4(O)[C@@H](C2)N(CC2CC2)CC[C@]314
k el at 1 µM: 0.000363 s⁻¹
//
Cpd smiles: COc1ccc2c3c1O[C@H]1c4c(c5c(OC)ccc6c5n4CCC6)C[C@@]4(O)[C@@H](C2)N(CC2CC2)CC[C@]314
k el at 1 µM: 0.00333 s⁻¹
//
Cpd smiles: COc1ccc2c3c1O[C@H]1c4c(c5cccc6c5n4CCC6)C[C@@]4(O)[C@@H](C2)N(CC2CC2)CC[C@]314.CS(=O)(=O)O
k el at 1 µM: 0.00568 s⁻¹
//
Cpd smiles: Oc1ccc2c3c1O[C@H]1c4c(c5cc(Cl)cc6c5n4CCC6)C[C@@]4(O)[C@@H](C2)N(CC2CC2)CC[C@]314
k el at 1 µM: 0.000295 s⁻¹
//
Cpd smiles: Oc1ccc2c3c1O[C@H]1c4c(c5cc(F)cc6c5n4CCC6)C[C@@]4(O)[C@@H](C2)N(CC2CC2)CC[C@]314
k el at 1 µM: 0.00029 s⁻¹
//
Cpd smiles: COc1ccc2c3c1O[C@H]1c4c(c5c(C)ccc6c5n4CCC6)C[C@@]4(O)[C@@H](C2)N(CC2CC2)CC[C@]314
k el at 1 µM: 0.00595 s⁻¹
//
Cpd smiles: Oc1ccc2c3c1O[C@H]1c4c(c5c(Br)ccc6c5n4CCC6)C[C@@]4(O)[C@@H](C2)N(CC2CC2)CC[C@]314
k el at 1 µM: 0.000618 s⁻¹
